Measured pIC50 by item
# MEASUREMENT_TARGET: Tyrosinase (Homo sapiens, UniProt P14679)
# Sequence (P14679 whole entry): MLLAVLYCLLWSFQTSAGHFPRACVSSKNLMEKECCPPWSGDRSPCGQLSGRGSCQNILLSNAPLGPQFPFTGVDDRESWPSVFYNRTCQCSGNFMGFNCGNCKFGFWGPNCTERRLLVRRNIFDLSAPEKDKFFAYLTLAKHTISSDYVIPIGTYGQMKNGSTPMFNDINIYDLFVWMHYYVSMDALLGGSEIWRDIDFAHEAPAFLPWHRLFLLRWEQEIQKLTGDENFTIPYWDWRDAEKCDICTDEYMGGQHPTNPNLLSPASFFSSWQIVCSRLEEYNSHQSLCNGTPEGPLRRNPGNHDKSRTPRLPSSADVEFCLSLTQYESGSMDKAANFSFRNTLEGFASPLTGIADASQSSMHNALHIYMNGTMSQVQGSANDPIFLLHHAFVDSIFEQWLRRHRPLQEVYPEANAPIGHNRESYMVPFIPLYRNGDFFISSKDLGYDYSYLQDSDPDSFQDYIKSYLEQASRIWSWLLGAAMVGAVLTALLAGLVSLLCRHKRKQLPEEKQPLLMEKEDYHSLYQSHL
pIC50: −log10 of the molar value.

O=C1/C(=C/c2ccc(O)cc2O)Cc2c1cccc2C(F)(F)F	< 4.00
O=C1/C(=C/c2ccc(O)cc2O)Cc2c1cccc2[N+](=O)[O-]	< 4.00

Now take the following molecule into account.
Quick note, pIC50 for CC(C)C(=O)Nc1nc(-c2ccc(O)cc2O)cs1 landed at 6.77

====

Measured IC50 by item
# MEASUREMENT_TARGET: Mushroom tyrosinase (Agaricus bisporus, UniProt O42713+Q00024+C7FF04+C7FF05)
# PROCEDURE_TEXT: Inhibition of mushroom tyrosinase using L-DOPA as substrate preincubated for 10 mins followed by substrate addition measured after 10 mins by absorbance based spectramax microplate reader assay
# Assay type: protein assay

CCCC(=O)Nc1cccc2c1C/C(=C\c1ccc(O)cc1O)C2=O	6 nM

Quick note, IC50 for O=C1/C(=C/c2ccc(O)cc2O)Cc2c(Br)cccc21 landed at 86 nM

Quick note, IC50 for O=C(Nc1cccc2c1C/C(=C\c1ccc(O)cc1O)C2=O)c1ccccc1 landed at 100 nM
